- Assay Text: Mouse blood levels after intramuscular administration
- Format: in vivo
- Settings: 90 minutes after IM 40 mg/kg, average of 6 mice, read-out: Mouse blood level
concentration at 1.5 h values, listed per item

Solved entries:
NCCOCC1=C(C(=O)O)N2C(=O)CC2S1 (stereo not drawn) [Example 86] ... < 3100 ng/mL
NCCC1=C(C(=O)O)N2C(=O)CC2S1 (stereo not drawn) [Example 24, 2-Aminoethylpenem-3-carboxylic Acid] ... < 3100 ng/mL

Next:
Ask | Quick one: concentration at 1.5 h of N[C@H]1C[C@@H](C2=C(C(=O)O)N3C(=O)C[C@H]3S2)C1 [Example 78] ?
Reply | < 5000 ng/mL

----------
MIC values, listed per item
- Test system: Staph. aureus (Meth-Res) A-15097
- Assay Text: MIC, tube dilution, Staphylococcus aureus A15097 (Meth-Res)
- Assay type: cell-based
- Settings: Staphylococcus aureus, Staph. aureus A15097 (Meth-Res); overnight 37° C.; read-out: Minimum Inhibitory Concentration (M.I.C.)

COCOC[C@H](O)[C@H]1C(=O)N2C(C(=O)O)=C(C)S[C@H]12 (relative stereo) ... > 63 µg/mL
CCC(N)CC1=C(C(=O)O)N2C(=O)CC2S1 (stereo not drawn) ... > 32 µg/mL

Next:
Ask | Quick one: MIC of CC1=C(C(=O)O)N2C(=O)[C@H]([C@@H]3COC(C)(C)O3)[C@H]2S1 (relative stereo) ?
Reply | > 63 µg/mL

----------
- System: Pr. mirabilis A-9900
- Assay Text: MIC, tube dilution, Proteus mirabilis A9900
- Format: cell-based
- Settings: Proteus mirabilis A9900; overnight 37° C.
Value Type: Minimum Inhibitory Concentration (M.I.C.) (µg/mL)
I only need the number, in µg/mL, no unit after it.

COP(=O)(CCC1=C(C(=O)O)N2C(=O)CC2S1)OC (stereo not drawn) ... 8
NC1CCC(C2=C(C(=O)O)N3C(=O)C[C@H]3S2)C1 (single isomer, unassigned) [98 isomer C] ... 8

Ask | Quick one: Minimum Inhibitory Concentration (M.I.C.) of CCCCCC1=C(C(=O)[O-])N2C(=O)C[C@H]2S1.[K+] [Preparation 16, Potassium 2-Pentylpenem-3-carboxylate] ?
Reply | 8

----------
MIC values, listed per item
- Tested on: Staph. aureus A-9537 and 50% serum
- Assay Text: MIC, tube dilution, Staph. aureus A9537 + 50% serum
- Type: cell-based, Staphylococcus aureus
- Settings: Staphylococcus aureus, overnight 37° C., read-out: Minimum Inhibitory Concentration (M.I.C.)

O=C([O-])C1=C(Cc2ccccc2)S[C@@H]2CC(=O)N12.[Na+] [Preparation 21, Sodium 2-Benzylpenem-3-carboxylate] ... > 63 µg/mL
O=C(O)C1=C(c2cscn2)SC2CC(=O)N12 (stereo not drawn) ... > 63 µg/mL

Next:
Ask | Can you look up MIC on Staph. aureus A-9537 and 50% serum for O=C([O-])C1=C(c2cccnc2)S[C@@H]2CC(=O)N12.[Na+] [Example 53, Sodium 2-(3-Pyridyl)penem-3-carboxylate] ?
Reply | > 63 µg/mL

----------
- Test system: Proteus rettgeri A21203
- Assay Text: MIC, tube dilution, Proteus rettgeri A21203
- Assay type: cell-based
- Settings: Providencia rettgeri; Proteus rettgeri A21203; overnight 37° C.; read-out: Minimum Inhibitory Concentration (M.I.C.)
Value Type: MIC

Solved entries:
CC[C@@H](O)[C@H]1C(=O)N2C(C(=O)O)=C(C)S[C@H]12 (relative stereo) ... > 125 µg/mL
CC1=C(C(=O)O)N2C(=O)[C@H]([C@H](C)O)[C@H]2S1 (relative stereo) ... > 125 µg/mL

Next:
Ask | Quick one: MIC of CSc1nnc(C2=C(C(=O)O)N3C(=O)CC3S2)o1 (stereo not drawn) ?
Reply | > 125 µg/mL

----------
- Test system: Staph. aureus A-9537 and 50% serum
- Assay Text: MIC, tube dilution, Staph. aureus A9537 + 50% serum
- Assay type: cell-based, Staphylococcus aureus
- Settings: Staphylococcus aureus, overnight 37° C., read-out: Minimum Inhibitory Concentration (M.I.C.)
MIC values, listed per item
I only need the number, in µg/mL, no unit after it.

Solved entries:
N=C(Cc1ccccc1)NCC1=C(C(=O)O)N2C(=O)CC2S1 (stereo not shown) [Example 107] ... 16
CC(=O)NCCC1=C(C(=O)O)N2C(=O)CC2S1 (stereo not shown) [Example 25] ... 8

Ask | Quick one: MIC of NCc1ccc(CC2=C(C(=O)O)N3C(=O)CC3S2)cc1 (stereo not shown) [Example 85] ?
Reply | 1

Ask | Now the same for CC1=C(C(=O)O)N2C(=O)[C@@H]([C@H](C)O)[C@H]2S1 (relative stereo) [Example 61]
Reply | 4

Ask | Now the same for NC=NCC1=C(C(=O)O)N2C(=O)CC2S1 (stereo not shown) [16 (6)]
Reply | 63

Ask | Now the same for CC(N)CCC1=C(C(=O)O)N2C(=O)C[C@H]2S1 (stereo partly shown) [Example 80]
Reply | 0.25

Ask | Now the same for C[C@@H](O)[C@H]1C(=O)N2C(C(=O)O)=C(CCCCN)S[C@H]12 (relative stereo) [Example 64]
Reply | 0.13

Ask | Now the same for O=C(O)C1=C(C2CC2)SC2CC(=O)N12 (stereo not shown) [Example 14, 2-Cyclopropylpenem-3-carboxylic Acid]
Reply | 16

Ask | Now the same for NCC[S+]([O-])CC1=C(C(=O)O)N2C(=O)C[C@H]2S1 (stereo partly shown) [Example 101]
Reply | 4

Ask | Now the same for CC(N)=NCC1=C(C(=O)O)N2C(=O)CC2S1 (stereo not shown) [16 (5)]
Reply | 32

Ask | Now the same for CCOP(=O)(CCC1=C(C(=O)O)N2C(=O)CC2S1)OCC (stereo not shown) [Preparation 25]
Reply | 8
